Test system: Bacillus subtilis DB104 (SP-AmyQ fusion secretion)
Test: AmyQ secretion efficiency, weighted average sort bin (1 = best secretion, 10 = worst) (bin number (weighted average, 1-10)); higher = lower secretion efficiency
Parameter Measured: AmyQ secretion efficiency

Solved cases below.
MKSLPYTIALLFCGLIIVSMAAKGHST [wt_52] ... 6.6
MKLAKRVSALTPSTTLAITAKFKEL ... 7.68
MKSCKQLIVCSLAAILLLIPSVSFGADS ... 3.57
MKVPKTMLLSTAAGLLLSLTATSRSAHYV ... 6.25
MKKKQVMLALTAAAGLGLTALHSAPAHKAAPL ... 6.85
MKLKKRVSMGLVALTMCGGLFVTPAKAVKT ... 2.55
MGSTSFILWISLLFALTLIFTMAFSNMSAQAAGK ... 6.79
MRGKSAVLLSLIMLIAGFLISFYFQM ... 7.22

Hello, I would appreciate it if you could give AmyQ secretion efficiency for each entry below.
1. MKKAFLVFLSVVLVTTVFLVKQQESVAQNKQL
2. MGMKRVITCVMAASLTLGSLLPAGYATAKED

Response:
2.89
6.01

Hello, I would appreciate it if you could give AmyQ secretion efficiency for each entry below.
1. MKKAAAVLLSLGLVFGFSYGAEAKTK
2. MFNRLFRVCFLAALIMAFTLPNSYYAQKP
3. MKKRFSLRRRKRKLFGLTSPAFAAEK
4. MNLRKILLSSALSLGMLTLFFLSAVTVSAAPVLATSS
5. MKVPKTMLLSTAAGLLLSLTATSVSCHYV
6. MGLGKKLSVAVAASFMSLSISLPGVQDAEG

Response:
1. 2.21
2. 7.48
3. 7.37
4. 1.71
5. 5.45
6. 3.93

Hello, I would appreciate it if you could give AmyQ secretion efficiency for each entry below.
1. MKRLLVSLRVWMVFLMNWVTPDRKTAAGAVY
2. MKSLPYTIALLFCGLIIVSMAAKGDED
3. MKKQIITATTAVVLGSTLFAGAPPATASVPVVGASAQSI
4. MKKIMSARRRRVLLTIFCFSPQASAAYD

Response:
[7.15, 8.1, 2.17, 7.27]

Hello, I would appreciate it if you could give AmyQ secretion efficiency for each entry below.
1. MKKLLAAGIIGLLTVSIASPSFSAEK
2. MNKPTKLRRKKKRAAGMTAAAAGGAGTIHAQQP
3. MNKLKRLSMLTVMIASVFIFSSSHALAAQY
4. MKSRTIWTIILGALCIAVAYTLTKSQAGASSS
5. MKLAKRVSALTPSTTLAITAKPKEL

Response:
1: 3.02; 2: 7.88; 3: 1.68; 4: 8.18; 5: 6.44

Data origin, for the record: the supplement of paper PMC9942255
